# Experimental target: Progesterone receptor (Homo sapiens)
# Procedure text: qHTS assay to identify small molecule antagonists of the progesterone receptor (PR) signaling pathway (AID 1346795)
# Assay conditions: PR-UAS-bla HEK293T, beta-lactamase FRET ratio, 16 h; series mostly up to 92.4 µM
# Text: National Center for Advancing Translational Sciences [NCATS] NIH Chemical Genomics Center [NCGC] U.S. Environmental Protection Agency [EPA] National Institutes of Environmental Health Sciences [NIEHS] National Toxicology Program [NTP] U.S. Food and Drug Administration [FDA] Progesterone receptor (PR), a nuclear hormone receptor, plays an important role in development, metabolic homeostasis and reproduction. […]
Records with an inconclusive call do not appear. Calls of active or inactive are those of the source. The call rests on the fitted dose curve; in most records, active means well fitted inhibition curve with a large enough effect in the signal ratio in the repeat runs (not every such curve was filed as active); inconclusive means weak or mixed curves; inactive means flat fitted curve, though single readings scatter; the % refers to the signal ratio.
Lab note: assign the record to one of True (active), False (inactive)

stdin: Hello, I am checking results. What call was entered for O=C(O)c1ccc(-n2nc(-c3ccccc3O)nc2-c2ccccc2O)cc1 ?
stdout: True

stdin: Hello, I am checking results. What call was entered for O=C1c2ccccc2S(=O)(=O)N1CCCCN1CCN(c2ncccn2)CC1 ?
stdout: False

stdin: Hello, I am checking results. What call was entered for OCCNCc1ccccc1 ?
stdout: False

stdin: Hello, I am checking results. What call was entered for C/C=C(/C(=C/C)c1ccc(OC(C)=O)cc1)c1ccc(OC(C)=O)cc1 ?
stdout: True

stdin: Hello, I am checking results. What call was entered for CC(C)(O)c1ccc(CNC(=O)c2cccnc2Oc2ccc(F)cc2)cc1 ?
stdout: False

stdin: Hello, I am checking results. What call was entered for O=P(O)(OCc1ccccc1)OCc1ccccc1 ?
stdout: False

stdin: Hello, I am checking results. What call was entered for COc1ccc(C(=O)Nc2nc3ccccc3c(NCc3ccccc3)c2C#N)cc1 ?
stdout: False

stdin: Hello, I am checking results. What call was entered for CO[C@@H]1[C@H](OC(=O)/C=C/C=C/C=C/C=C/C(=O)O)CC[C@]2(CO2)[C@H]1[C@@]1(C)O[C@@H]1CC=C(C)C ?
stdout: False

stdin: Hello, I am checking results. What call was entered for CC(COCCO)OCCO (stereo unspecified) ?
stdout: False

stdin: Hello, I am checking results. What call was entered for CN(Cc1ccc(C(C)(C)C)cc1)Cc1cccc2ccccc12 ?
stdout: False

stdin: Hello, I am checking results. What call was entered for CC1=CC[C@H](C(C)C)C=C1 ?
stdout: False

====

# Experimental target: Retinoic acid receptor RXR-alpha (Homo sapiens) (UniProt P19793)
# Sequence (P19793 whole entry, looked up): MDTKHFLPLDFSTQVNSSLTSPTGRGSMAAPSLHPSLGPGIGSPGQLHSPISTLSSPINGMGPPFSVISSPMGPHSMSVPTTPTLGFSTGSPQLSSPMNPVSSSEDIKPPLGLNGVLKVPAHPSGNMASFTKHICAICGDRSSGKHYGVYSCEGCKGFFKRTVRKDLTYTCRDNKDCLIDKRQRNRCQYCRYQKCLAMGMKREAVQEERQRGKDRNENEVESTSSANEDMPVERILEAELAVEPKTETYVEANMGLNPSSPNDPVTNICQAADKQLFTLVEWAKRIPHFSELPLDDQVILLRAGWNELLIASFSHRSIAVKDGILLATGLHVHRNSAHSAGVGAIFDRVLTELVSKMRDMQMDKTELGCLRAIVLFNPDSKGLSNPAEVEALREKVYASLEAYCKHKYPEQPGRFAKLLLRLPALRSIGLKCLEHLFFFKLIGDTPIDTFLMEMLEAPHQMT
# Procedure text: qHTS assay to identify small molecule agonists of the RXR signaling pathway (AID 1159527); further: nearly all actives have a fitted effect of over 35% in size
# Assay conditions: HEK293T RXRa-UAS-bla, beta-lactamase ratio, 16 h; series mostly up to 76.8 µM
Inconclusive results are not listed. The source made the active and inactive calls. Calls come from the whole dose curve.
Value type: activation

Previously resolved entries follow.
[
  {
    "Molecule": "O=C(O)c1ccco1",
    "Experimental target": "Retinoic acid receptor RXR-alpha (Homo sapiens) (UniProt P19793)",
    "activation": "inactive"
  },
  {
    "Molecule": "Cc1ccc(N=Nc2c(O)c(C(=O)O)cc3ccccc23)c(S(=O)(=O)O)c1",
    "Experimental target": "Retinoic acid receptor RXR-alpha (Homo sapiens) (UniProt P19793)",
    "activation": "inactive"
  },
  {
    "Molecule": "COc1ccc(C)cc1[N+](=O)[O-]",
    "Experimental target": "Retinoic acid receptor RXR-alpha (Homo sapiens) (UniProt P19793)",
    "activation": "inactive"
  },
  {
    "Molecule": "C/C=C/C=C/CO",
    "Experimental target": "Retinoic acid receptor RXR-alpha (Homo sapiens) (UniProt P19793)",
    "activation": "inactive"
  },
  {
    "Molecule": "C=C1[C@H]2CC[C@@H]3[C@H]2C(C)(C)CCC[C@]13C",
    "Experimental target": "Retinoic acid receptor RXR-alpha (Homo sapiens) (UniProt P19793)",
    "activation": "inactive"
  },
  {
    "Molecule": "CCCCCCCCCOS(=O)(=O)O",
    "Experimental target": "Retinoic acid receptor RXR-alpha (Homo sapiens) (UniProt P19793)",
    "activation": "inactive"
  },
  {
    "Molecule": "CCCCC(=O)OCC(=O)[C@H]1[C@H](C)C[C@H]2[C@@H]3C[C@H](F)C4=CC(=O)C=C[C@]4(C)[C@@]3(F)[C@@H](O)C[C@@]21C",
    "Experimental target": "Retinoic acid receptor RXR-alpha (Homo sapiens) (UniProt P19793)",
    "activation": "inactive"
  },
  {
    "Molecule": "CC(C)(C)OCC1CO1 (stereo not drawn)",
    "Experimental target": "Retinoic acid receptor RXR-alpha (Homo sapiens) (UniProt P19793)",
    "activation": "inactive"
  },
  {
    "Molecule": "CCCCCCCC/C=C\\CCCCCCCC(=O)OCC",
    "Experimental target": "Retinoic acid receptor RXR-alpha (Homo sapiens) (UniProt P19793)",
    "activation": "inactive"
  },
  {
    "Molecule": "CCn1cc(C(=O)O)c(=O)c2cnc(N3CCNCC3)nc21",
    "Experimental target": "Retinoic acid receptor RXR-alpha (Homo sapiens) (UniProt P19793)",
    "activation": "inactive"
  }
]

stdin: Query activation for O=C(NCCO[N+](=O)[O-])c1cccnc1
stdout: inactive

stdin: Query activation for CC(C)(CO)[N+](=O)[O-]
stdout: inactive

stdin: Query activation for CC1=CC=C(C(C)C)CC1
stdout: inactive
